test system: α7 integrin (LacZ reporter in α7+/LacZ myotubes); assay: Myotube α7 integrin FDG assay (Burkin assay in myotubes, 96-well); type: cell-based, mouse; conditions: 1 uM; SU9516 analogs, 96-well, N=3-6
readout: Burkin Assay in Myotubes, value relative to DMSO
A bare number is all that is needed in reply.

// known answers, use as guide
- compound: "Cc1ncc(/C=C2\\C(=O)Nc3ccccc32)[nH]1 [MLS000834757-01]"
  reported-measurement: 0.943
- compound: "Cc1[nH]c(/C=C2\\C(=O)Nc3ccc(S(=O)(=O)Cc4c(Cl)cccc4Cl)cc32)c(C)c1C(=O)C1CCCN1CN1CCCC1 (stereo not drawn) [NCGC00242500-01]"
  reported-measurement: 0.9391

Exam item: Entry Cc1cc(C)c(/C=C2\C(=O)Nc3ccccc32)[nH]1 [NCGC00094381-03] : reported Burkin Assay in Myotubes, value relative to DMSO = ?
Marked response: 0.9334

###

tested on: β-galactosidase in CMV-LacZ C2C12 myotubes; assay: CMV-LacZ secondary screen in C2C12 myotubes (β-Gal stabilizing assay); type: cell-based, mouse; details: 10 uM; C2C12 CMV-LacZ myotubes; fold relative to DMSO
readout: CMV-LACZ in Myotubes, signal relative to DMSO
A bare number is all that is needed in reply.

// known answers, use as guide
- structure: "CS(=O)(=O)c1ccc(Cl)c(NC(=O)CSc2nncn2-c2ccccc2)c1"
  measured-on: "β-galactosidase in CMV-LacZ C2C12 myotubes"
  reported-measurement: 0.9578
- structure: "CCOn1c(=O)c(-c2ccccc2)[n+]([O-])c2ccccc21"
  measured-on: "β-galactosidase in CMV-LacZ C2C12 myotubes"
  reported-measurement: 0.9289
- structure: "COC(=O)c1ccc(COC(=O)CNC(=O)c2cccs2)cc1"
  measured-on: "β-galactosidase in CMV-LacZ C2C12 myotubes"
  reported-measurement: 0.815

Exam item: Entry "c1ccc(-c2cn3c4c(sc3n2)CCCC4)cc1" : reported CMV-LACZ in Myotubes, signal relative to DMSO = ?
Marked response: 1.1613

Exam item: Entry "COC(=O)c1ccccc1NC(=O)CSc1nc(O)c(-c2ccccc2)c(=O)[nH]1" : reported CMV-LACZ in Myotubes, signal relative to DMSO = ?
Marked response: 1.1398

Exam item: Entry "Cc1cc(C)cc(-n2nnc(C(=O)NCc3ccccc3Cl)c2N)c1" : reported CMV-LACZ in Myotubes, signal relative to DMSO = ?
Marked response: 0.9406

Exam item: Entry "O=C(O)c1cc(N=Cc2c(O)c3ccccc3oc2=O)ccc1O" : reported CMV-LACZ in Myotubes, signal relative to DMSO = ?
Marked response: 1.031

Exam item: Entry "Cc1cc(C)cc(OCC(=O)N/N=C/c2ccccn2)c1" : reported CMV-LACZ in Myotubes, signal relative to DMSO = ?
Marked response: 1.2372

Exam item: Entry "Cc1ccsc1-c1n[nH]c(=S)n1C1CCCCC1" : reported CMV-LACZ in Myotubes, signal relative to DMSO = ?
Marked response: 0.9614

###

Reported CMV-LACZ in Myoblasts, value relative to DMSO is given for each of the following molecules.
system: β-galactosidase in CMV-LacZ C2C12 myoblasts; assay: CMV-LacZ secondary screen in C2C12 myoblasts (β-Gal stabilizing assay); format: cell-based, mouse; conditions: 40 uM; SU9516 analogs, C2C12 CMV-LacZ, N=2
A bare number is all that is needed in reply.

// known answers, use as guide
- molecule: "CCO/C(C)=C1\\C(=O)Nc2ccccc21"
  reported-measurement: 0.9650
- molecule: "COc1ccccc1/C=C1\\C(=O)Nc2ccccc21"
  reported-measurement: 0.9217
- molecule: "Cc1cc(C)c(/C=C2\\C(=O)Nc3ccccc32)[nH]1 [NCGC00094381-03]"
  reported-measurement: 1.0253
- molecule: "Cc1ccc2c(c1)/C(=C/c1ccccc1C)C(=O)N2"
  reported-measurement: 0.4819
- molecule: "O=C1Nc2ccccc2/C1=C/c1cccnc1"
  reported-measurement: 0.2419
- molecule: "CCn1c(O)c(C(C#N)=C2N=c3ccccc3=N2)c2ccccc21"
  reported-measurement: 1.0885
- molecule: "Cc1ccc2c(c1)/C(=C/c1ccccc1)C(=O)N2"
  reported-measurement: 0.7437
- molecule: "Cc1ccc(/C=C2\\C(=O)Nc3ccccc32)o1"
  reported-measurement: 1.1119

Exam item: Entry "C=CCOc1ccc(C(=O)/C=C2/C(=O)Nc3ccccc32)cc1" : reported CMV-LACZ in Myoblasts, value relative to DMSO = ?
Marked response: 0.4856

Exam item: Entry "N#C/C(=C1/C(=O)Nc2ccc(Br)cc21)c1ccccn1" : reported CMV-LACZ in Myoblasts, value relative to DMSO = ?
Marked response: 0.6670
